experimental.system: AHR (Mus musculus)
Sequence (P30561 1-848 P471L/N533S/M589L): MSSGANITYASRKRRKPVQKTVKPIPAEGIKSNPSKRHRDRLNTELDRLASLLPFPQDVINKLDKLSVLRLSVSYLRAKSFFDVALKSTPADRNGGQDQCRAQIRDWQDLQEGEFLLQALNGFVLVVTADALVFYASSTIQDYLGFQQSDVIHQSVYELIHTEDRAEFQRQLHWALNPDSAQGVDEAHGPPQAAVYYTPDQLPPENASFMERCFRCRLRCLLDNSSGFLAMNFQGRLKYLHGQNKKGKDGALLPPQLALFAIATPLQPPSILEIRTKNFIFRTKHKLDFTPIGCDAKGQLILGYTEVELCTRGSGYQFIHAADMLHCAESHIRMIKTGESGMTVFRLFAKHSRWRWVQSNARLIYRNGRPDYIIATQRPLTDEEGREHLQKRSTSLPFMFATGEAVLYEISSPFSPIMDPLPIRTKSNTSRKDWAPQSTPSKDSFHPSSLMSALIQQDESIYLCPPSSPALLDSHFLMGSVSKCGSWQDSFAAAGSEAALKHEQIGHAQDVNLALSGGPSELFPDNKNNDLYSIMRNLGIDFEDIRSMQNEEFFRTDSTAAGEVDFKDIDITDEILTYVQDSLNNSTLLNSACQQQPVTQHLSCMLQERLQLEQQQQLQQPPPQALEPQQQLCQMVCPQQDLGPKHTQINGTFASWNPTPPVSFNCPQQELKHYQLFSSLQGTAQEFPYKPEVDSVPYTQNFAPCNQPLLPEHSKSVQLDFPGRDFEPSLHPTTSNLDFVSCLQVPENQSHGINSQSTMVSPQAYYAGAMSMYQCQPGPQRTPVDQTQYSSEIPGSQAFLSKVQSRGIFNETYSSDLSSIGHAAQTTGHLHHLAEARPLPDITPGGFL
protocol.notes: In vitro assay 3: antagonism in mouse cell line (AHR transactivation, firefly luciferase reporter, kynurenic acid prestimulated)
Format: cell-based
condition.parameters: mouse Hepa 1c1c7 cells, 200 μM kynurenic acid, 20 hours, read-out: AHR Antagonism Mouse IC50
value.kind: IC50 (nM)

[[record]]
compound = "COc1cccc(-c2nc3c4cc(C)ccc4nc(N[C@@H]4CCCCNC4=O)n3n2)c1 [Example 154]"
value_kind = "IC50"
measurement_units = "nM"
value_modifier = "="
observed = 1.16

[[record]]
compound = "CC[C@@H](Nc1nc2ccccc2c2nc(-c3ccc(S(C)(=O)=O)cc3)nn12)C(N)=O [Example 376]"
value_kind = "IC50"
measurement_units = "nM"
value_modifier = "="
observed = 4.93

[[record]]
compound = "COc1cccc(-c2nc3c4cccc(C)c4nc(N[C@@H]4CCCCNC4=O)n3n2)c1 [Example 140]"
value_kind = "IC50"
measurement_units = "nM"
value_modifier = "="
observed = 1.08

[[record]]
compound = "CCCCNC(=O)[C@@H](C)Nc1nc2c(C(F)(F)F)cccc2c2nc(-c3cnn(C)c3)nn12 [Example 751]"
value_kind = "IC50"
measurement_units = "nM"
value_modifier = "="
observed = 54.7

[[record]]
compound = "O=C1NCCCC[C@H]1Nc1nc2ccccc2c2nc(-c3ccn4ccnc4c3)nn12 [Example 390]"
value_kind = "IC50"
measurement_units = "nM"
value_modifier = "="
observed = 1.02

[[record]]
compound = "CCn1cc(-c2nc3c4cccc(C(F)(F)F)c4nc(N[C@@H]4CCCCNC4=O)n3n2)c(C)n1 [Example 674]"
value_kind = "IC50"
measurement_units = "nM"
value_modifier = "="
observed = 0.669

[[record]]
compound = "COc1ccc(-c2nc3c4cccc(C5(C(F)(F)F)CC5)c4nc(N[C@@H]4CNCCNC4=O)n3n2)cc1 [Example 431]"
value_kind = "IC50"
measurement_units = "nM"
value_modifier = "="
observed = 60.6

[[record]]
compound = "O=C1NCCNC[C@H]1Nc1nc2ccccc2c2nc(-c3ccc(F)cc3)nn12 [Example 260]"
value_kind = "IC50"
measurement_units = "nM"
value_modifier = "="
observed = 6.75

[[record]]
compound = "O=C1NCC[C@H]1Nc1nc2c(Br)cccc2c2nc(-c3ccccc3OC(F)(F)F)nn12 [Example 219]"
value_kind = "IC50"
measurement_units = "nM"
value_modifier = "="
observed = 7.14

[[record]]
compound = "COc1cccc(-c2nc3c4ccccc4nc(N[C@H](Cc4ccccc4)C(N)=O)n3n2)c1 [Example 90]"
value_kind = "IC50"
measurement_units = "nM"
value_modifier = "="
observed = 6.34

[[record]]
compound = "O=C1NCCCC[C@@H]1Nc1nc2ccccc2c2nc(-c3ccc(F)cc3)nn12 [Example 71]"
value_kind = "IC50"
measurement_units = "nM"
value_modifier = "="
observed = 3.86

[[record]]
compound = "CC(C)(C)c1noc(-c2nc3c4ccccc4nc(N[C@@H]4CCCCNC4=O)n3n2)n1 [Example 134]"
value_kind = "IC50"
measurement_units = "nM"
value_modifier = "="
observed = 86.8

[[record]]
compound = "O=C1NCCCC[C@@H]1Nc1nc2ccccc2c2nc(-c3cc(Br)ccc3OC(F)(F)F)nn12 [Example 506]"
value_kind = "IC50"
measurement_units = "nM"
value_modifier = ">"
observed = 20000

[[record]]
compound = "CCn1cc(-c2nc3c4cccc(C#N)c4nc(N[C@@H]4CCCCNC4=O)n3n2)c(C)n1 [Example 763]"
value_kind = "IC50"
measurement_units = "nM"
value_modifier = "="
observed = 3.96

[[record]]
compound = "O=C1NCCCC[C@H]1Nc1nc2ccccc2c2nc(-c3cnn(C4CCC4)c3)nn12 [Example 603]"
value_kind = "IC50"
measurement_units = "nM"
value_modifier = "="
observed = 3.39

[[record]]
compound = "COc1ccc(-c2nc3c4cccc(Br)c4nc(N[C@H](C)C(=O)NCCN4CCOCC4)n3n2)cc1 [Example 781]"
value_kind = "IC50"
measurement_units = "nM"
value_modifier = "="
observed = 2.09

[[record]]
compound = "O=C1NCCCC[C@H]1Nc1nc2ccccc2c2nc(-c3cnccc3C(F)(F)F)nn12 [Example 490]"
value_kind = "IC50"
measurement_units = "nM"
value_modifier = "="
observed = 50.6

[[record]]
compound = "COc1ccc(-c2nc3c4cc(Cl)ccc4nc(N[C@@H]4CNCCNC4=O)n3n2)cc1 [Example 278]"
value_kind = "IC50"
measurement_units = "nM"
value_modifier = "="
observed = 51

[[record]]
compound = "COc1ccc(-c2nc3c4cccc(Br)c4nc(N[C@H]4COCCNC4=O)n3n2)cc1 [Example 681]"
value_kind = "IC50"
measurement_units = "nM"
value_modifier = "="
observed = 13.1

[[record]]
compound = "COc1cccc(-c2nc3c4ccc(F)cc4nc(N[C@@H]4CCCCNC4=O)n3n2)c1 [Example 148]"
value_kind = "IC50"
measurement_units = "nM"
value_modifier = "="
observed = 2.41

[[record]]
compound = "O=C1NCCNC[C@H]1Nc1nc2c(C(F)(F)F)cccc2c2nc(-c3ccc(Cl)cc3OC(F)(F)F)nn12 [Example 710]"
value_kind = "IC50"
measurement_units = "nM"
value_modifier = "="
observed = 1.8

[[record]]
compound = "CS(=O)(=O)c1ccc(-c2nc3c4cccc(Br)c4nc(N[C@@H]4CNCCNC4=O)n3n2)cc1 [Example 715]"
value_kind = "IC50"
measurement_units = "nM"
value_modifier = "="
observed = 14.8

[[record]]
compound = "COc1ccc(-c2nc3c4c(Cl)cccc4nc(N[C@@H]4CCCCNC4=O)n3n2)cc1 [Example 168]"
value_kind = "IC50"
measurement_units = "nM"
value_modifier = "="
observed = 2.21

[[record]]
compound = "N#Cc1cccc(-c2nc3c4ccccc4nc(N[C@@H]4CCCNC4=O)n3n2)c1 [Example 384]"
value_kind = "IC50"
measurement_units = "nM"
value_modifier = "="
observed = 72.2

[[record]]
compound = "Cn1cc(-c2nc3c4cccc(C(F)(F)F)c4nc(NC4C(=O)NCC4(C)C)n3n2)cn1 (racemic) [Example 728]"
value_kind = "IC50"
measurement_units = "nM"
value_modifier = "="
observed = 446

[[record]]
compound = "COc1cccc(-c2nc3c4ccccc4nc(N[C@@H](CO)C(N)=O)n3n2)c1 [Example 85]"
value_kind = "IC50"
measurement_units = "nM"
value_modifier = "="
observed = 229

[[record]]
compound = "COc1cccc2c1nc(N[C@@H]1CCCCNC1=O)n1nc(-c3cnn(C4CCC4)c3)nc21 [Example 758]"
value_kind = "IC50"
measurement_units = "nM"
value_modifier = "="
observed = 19.6

[[record]]
compound = "CCOc1ccc(-c2nc3c4ccccc4nc(N[C@@H]4CCCCNC4=O)n3n2)cc1 [Example 616]"
value_kind = "IC50"
measurement_units = "nM"
value_modifier = "="
observed = 1.07

[[record]]
compound = "CC(C)c1noc(-c2nc3c4ccccc4nc(N[C@@H]4CCCCNC4=O)n3n2)n1 [Example 133]"
value_kind = "IC50"
measurement_units = "nM"
value_modifier = "="
observed = 32.7

[[record]]
compound = "O=C1NCC[C@H]1Nc1nc2ccccc2c2nc(-c3cccc(OC(F)(F)F)c3)nn12 [Example 310]"
value_kind = "IC50"
measurement_units = "nM"
value_modifier = "="
observed = 60.7

[[record]]
compound = "CC[C@H](Nc1nc2ccccc2c2nc(-c3ccc(Cl)cc3OC(F)F)nn12)C(N)=O [Example 532]"
value_kind = "IC50"
measurement_units = "nM"
value_modifier = "="
observed = 10.6

[[record]]
compound = "CC[C@@H](Nc1nc2ccccc2c2nc(-c3cscc3OC)nn12)C(N)=O [Example 338]"
value_kind = "IC50"
measurement_units = "nM"
value_modifier = "="
observed = 53.9

